B1: C9orf9 (parent)
chain: LTKASLKPRGCSKPPWRPPGGKL

# Variants of: B1
# Assay Info: protein stability index of a GFP-peptide fusion (GPS, HEK-293T) (PSI 1-6); higher = more stable;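 further: lentivirally expressed fusions sorted by FACS into six bins by GFP to DsRed ratio, PSI derived from sequencing read proportions per bin multiplied by bin number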
# Condition Info: c terminus: native
Quantity: protein stability index

[[record]]
variant_code = "G10R"
assay_value = 3.37

[[record]]
variant_code = "P15M"
assay_value = 1.78

[[record]]
variant_code = "C11P"
assay_value = 1.65

[[record]]
variant_code = "R9W"
assay_value = 2.31

[[record]]
variant_code = "A4P"
assay_value = 3.55

[[record]]
variant_code = "K3Y"
assay_value = 2.73

[[record]]
variant_code = "S12T"
assay_value = 3.8

[[record]]
variant_code = "G10S"
assay_value = 2.7

[[record]]
variant_code = "G10I"
assay_value = 2.47

[[record]]
variant_code = "K7L"
assay_value = 1.69

[[record]]
variant_code = "K13D"
assay_value = 3.65

[[record]]
variant_code = "P14L"
assay_value = 2.24

[[record]]
variant_code = "S5M"
assay_value = 1.83

[[record]]
variant_code = "C11W"
assay_value = 2.1

[[record]]
variant_code = "L23H"
assay_value = 2.48

[[record]]
variant_code = "G10K"
assay_value = 2.43

[[record]]
variant_code = "P15H"
assay_value = 2.18

[[record]]
variant_code = "K7I"
assay_value = 1.56

[[record]]
variant_code = "P18Q"
assay_value = 2.26

[[record]]
variant_code = "A4H"
assay_value = 1.96

[[record]]
variant_code = "P14A"
assay_value = 1.54

[[record]]
variant_code = "R17N"
assay_value = 4.2

